All figures here come from patent US9718809B2.

- Tested on: F-2,6-P2 in MIA PaCa-2 cells
- Experiment notes: Quantification of F-2,6-P2 (Van Schaftingen coupled enzyme assay) in MIA PaCa-2 cells
- Type: cell-based
- Test context: Homo sapiens, read-out: IC50 based on quantification of F-2,6-P2
Property label: IC50 (µM)
Report as a plain number; the unit µM is understood.

Any idea what IC50 came out for "O=C(OCCO)c1ccc(NS(=O)(=O)c2cccc(-c3cc(F)ccc3O)c2)cc1O" on F-2,6-P2 in MIA PaCa-2 cells?
0.2

Recall the recorded IC50 for "COC(=O)c1ccc(NS(=O)(=O)c2cc(-c3cc(F)ccc3O)c(Cl)s2)cc1O" with F-2,6-P2 in MIA PaCa-2 cells and state it.
2

* * *

- Experiment notes: Cell toxicity, CellTiter-Blue Cell Viability Assay
- Test context: human, MIA PaCa-2 pancreatic carcinoma cells, MIA PaCa-2 cells, 72 h culture, read-out: IC50 based on cell toxicity
Structures can show the parent of a compound that is named as a salt.
Property label: IC50 at 72 h (µM)
The answer is to be given in µM; state only the numeric part.

Data request, read-out IC50 at 72 h, for O=C(OCC1CCOC1)c1ccc(NS(=O)(=O)c2cc(Cl)c(Cl)s2)cc1O (centres unmarked)
25.3

Which IC50 at 72 h reading was recorded for the molecule "O=C(OCCO)c1ccc(NS(=O)(=O)c2cccc(-c3cc(F)ccc3O)c2)cc1O" ?
2.6

I would be grateful if you could share the reported IC50 at 72 h for O=C(OCCCN1CCOCC1)c1ccc(NS(=O)(=O)c2cccc(-c3cc(F)ccc3O)c2)cc1O [Example 160, trifluoroacetate] .
3.6

Would you mind telling me what IC50 at 72 h value was observed for CCC(COC(=O)c1ccc(NS(=O)(=O)c2cccc(-c3cc(F)ccc3O)c2)cc1O)OC (centres unmarked) ?
6.3

Quick one: IC50 at 72 h for CC(C)(C)OC(=O)N1CCC(OC(=O)c2ccc(NS(=O)(=O)c3c(Cl)sc(Cl)c3Cl)cc2O)C1 (centres unmarked) ?
17.7

* * *

Consider the following molecules; for each one, report its inhibition (F-2,6-P2 levels).
- Test system: F-2,6-P2 in PANC-1 cells
- Experiment notes: Quantification of F-2,6-P2 (Van Schaftingen coupled enzyme assay) in PANC-1 cells
- Type: cell-based, human
- Test context: at 12.5-50 μM in PANC-1 cells

Which inhibition (F-2,6-P2 levels) is listed for COC(=O)c1ccc(NS(=O)(=O)c2cc(Cl)c(-c3ccccc3OC)s2)cc1O [Example 207] ?
≥ 50%

Which inhibition (F-2,6-P2 levels) value belongs to COC(=O)c1ccc(NS(=O)(=O)c2ccc(-c3ccccc3)cc2)cc1O [Example 35] ?
≥ 50%

// returns reported inhibition (F-2,6-P2 levels) for input COC(=O)c1ccc(NS(=O)(=O)Cc2cccc(Br)c2)cc1O [Example 23]
≥ 50%

* * *

- Experiment notes: In vitro metabolic stability in human liver microsomes
- Assay type: in vitro ADME
- Test context: pH 7.4; pooled human liver microsomes 0.5 mg/ml, NADPH 1 mM, compound 3 μM
Property label: half-life at 3 μM (min)
Report the value in min with no unit label.

Fill in the blank: the reported half-life at 3 μM of "O=C(OCCO)c1ccc(NS(=O)(=O)c2cccc(-c3cc(F)ccc3O)c2)cc1O" is ____.
55
